Test system: ST486 (Burkitt's Lymphoma)
Assay: combination Emax (second highest fraction inhibited in the dose matrix, 72 h); higher = more inhibition; extreme values may be limits of the assay
Rule: combination Emax under 0.9 gives not met, otherwise met.

[
  {
    "compound": "NC1(C(=O)N[C@@H](CCO)c2ccc(Cl)cc2)CCN(c2ncnc3[nH]ccc23)CC1 [Capivasertib] + Cn1cnc2c(F)c(Nc3ccc(Br)cc3Cl)c(C(=O)NOCCO)cc21 [Selumetinib] (first compound max 10 µM, 7x7, partner max 10 µM)",
    "assayedTarget": "ST486 (Burkitt's Lymphoma)",
    "classAssignment": "not met"
  },
  {
    "compound": "Cc1c2c(nn1C)CSCc1cc(n(C)n1)CSc1cc(c3ccccc3c1)OCCCc1c(C(=O)O)n(C)c3c-2c(Cl)ccc13 [AZD5991] + C1CN(CCC1(C(=O)N[C@@H](CCO)C2=CC=C(C=C2)Cl)N)C3=NC=NC4=C3C=CN4 [Capivasertib] (first compound max 1 µM, 7x7, partner max 3 µM)",
    "assayedTarget": "ST486 (Burkitt's Lymphoma)",
    "classAssignment": "not met"
  },
  {
    "compound": "N#Cc1cnc(Nc2cc(NC[C@H]3CNCCO3)c(C(F)(F)F)cn2)cn1 [SRA737] + Nc1ccn([C@@H]2O[C@H](CO)[C@@H](O)C2(F)F)c(=O)n1 [Gemcitabine] (first compound max 10 µM, 7x7, partner max 0.3 µM)",
    "assayedTarget": "ST486 (Burkitt's Lymphoma)",
    "classAssignment": "met"
  },
  {
    "compound": "Cc1c2c(nn1C)CSCc1cc(n(C)n1)CSc1cc(c3ccccc3c1)OCCCc1c(C(=O)O)n(C)c3c-2c(Cl)ccc13 [AZD5991] + CCN(CCO)CCCOc1ccc2c(Nc3cc(CC(=O)Nc4cccc(F)c4)[nH]n3)ncnc2c1 [AZD2811] (first compound max 1 µM, 7x7, partner max 1 µM)",
    "assayedTarget": "ST486 (Burkitt's Lymphoma)",
    "classAssignment": "met"
  },
  {
    "compound": "CCN(CCO)CCCOc1ccc2c(Nc3cc(CC(=O)Nc4cccc(F)c4)[nH]n3)ncnc2c1 [AZD2811] + C=CCn1c(=O)c2cnc(Nc3ccc(N4CCN(C)CC4)cc3)nc2n1-c1cccc(C(C)(C)O)n1 [AZD1775] (first compound max 1 µM, partner max 1 µM)",
    "assayedTarget": "ST486 (Burkitt's Lymphoma)",
    "classAssignment": "met"
  },
  {
    "compound": "Cn1cnc2c(F)c(Nc3ccc(Br)cc3Cl)c(C(=O)NOCCO)cc21 [Selumetinib] + CCN(CCO)CCCOc1ccc2c(Nc3cc(CC(=O)Nc4cccc(F)c4)[nH]n3)ncnc2c1 [AZD2811] (first compound max 10 µM, 7x7, partner max 1 µM)",
    "assayedTarget": "ST486 (Burkitt's Lymphoma)",
    "classAssignment": "not met"
  },
  {
    "compound": "COc1cc2ncnc(Nc3ccc(F)c(Cl)c3)c2cc1OCCCN1CCOCC1 [Gefitinib] + CC(C)n1c(=O)n(C)c2cnc3cc(F)c(-c4ccc(OCCCN5CCCCC5)nc4)cc3c21 [AZD1390] (first compound max 10 µM, 7x7, partner max 0.3 µM)",
    "assayedTarget": "ST486 (Burkitt's Lymphoma)",
    "classAssignment": "not met"
  }
]

====

System: NCI-H520 (Squamous Cell Lung Carcinoma)
Assay: combination Emax (second highest fraction inhibited in the dose matrix, 72 h); higher = more inhibition; extreme values may be limits of the assay
Each record here notes measured combination Emax.
readoutLabel: combination Emax

[
  {
    "molecule": "NC1(C(=O)N[C@@H](CCO)c2ccc(Cl)cc2)CCN(c2ncnc3[nH]ccc23)CC1 [Capivasertib] + Cn1cnc2c(F)c(Nc3ccc(Br)cc3Cl)c(C(=O)NOCCO)cc21 [Selumetinib] (first compound max 10 µM, 7x7, partner max 10 µM)",
    "number": 0.548
  },
  {
    "molecule": "Cn1cnc2c(F)c(Nc3ccc(Br)cc3Cl)c(C(=O)NOCCO)cc21 [Selumetinib] + C=CCn1c(=O)c2cnc(Nc3ccc(N4CCN(C)CC4)cc3)nc2n1-c1cccc(C(C)(C)O)n1 [AZD1775] (first compound max 10 µM, partner max 1 µM)",
    "number": 0.295
  },
  {
    "molecule": "NC1(C(=O)N[C@@H](CCO)c2ccc(Cl)cc2)CCN(c2ncnc3[nH]ccc23)CC1 [Capivasertib] + C[C@@H]1COCCN1C2=NC(=NC(=C2)C3(CC3)[S@](=N)(=O)C)C4=C5C=CNC5=NC=C4 [AZD6738] (first compound max 10 µM, 7x7, partner max 10 µM)",
    "number": 0.711
  },
  {
    "molecule": "C=CCn1c(=O)c2cnc(Nc3ccc(N4CCN(C)CC4)cc3)nc2n1-c1cccc(C(C)(C)O)n1 [AZD1775] + O=C(c1cc(Cc2n[nH]c(=O)c3ccccc23)ccc1F)N1CCN(C(=O)C2CC2)CC1 [Olaparib] (first compound max 1 µM, partner max 10 µM)",
    "number": 0.833
  },
  {
    "molecule": "O=C(c1cc(Cc2n[nH]c(=O)c3ccccc23)ccc1F)N1CCN(C(=O)C2CC2)CC1 [Olaparib] + CC1(C)CCC(CN2CCN(c3ccc(C(=O)NS(=O)(=O)c4ccc(NCC5CCOCC5)c([N+](=O)[O-])c4)c(Oc4cnc5[nH]ccc5c4)c3)CC2)=C(c2ccc(Cl)cc2)C1 [Venetoclax] (first compound max 10 µM, 7x7, partner max 1 µM)",
    "number": 0.119
  },
  {
    "molecule": "CC1(C)CCC(CN2CCN(c3ccc(C(=O)NS(=O)(=O)c4ccc(NCC5CCOCC5)c([N+](=O)[O-])c4)c(Oc4cnc5[nH]ccc5c4)c3)CC2)=C(c2ccc(Cl)cc2)C1 [Venetoclax] + CS(=O)(=O)CCNCc1ccc(-c2ccc3ncnc(Nc4ccc(OCc5cccc(F)c5)c(Cl)c4)c3c2)o1 [Lapatinib] (first compound max 1 µM, 7x7, partner max 10 µM)",
    "number": 0.296
  },
  {
    "molecule": "O=C(c1cc(Cc2n[nH]c(=O)c3ccccc23)ccc1F)N1CCN(C(=O)C2CC2)CC1 [Olaparib] + CN(CC[C@H](CSC1=CC=CC=C1)NC2=C(C=C(C=C2)S(=O)(=O)NC(=O)C3=CC=C(C=C3)N4CCC(CC4)[C@H](C5=CC=CC=C5C6=CC=C(C=C6)Cl)O)S(=O)(=O)C(F)(F)F)CCO [AZD4320] (first compound max 10 µM, 7x7, partner max 1 µM)",
    "number": 0.125
  },
  {
    "molecule": "Cc1cc2ncnn2cc1Nc1ncc2c(n1)n(C1CCOCC1)c(=O)n2C [AZD7648] + O=C(c1cc(Cc2n[nH]c(=O)c3ccccc23)ccc1F)N1CCN(C(=O)C2CC2)CC1 [Olaparib] (first compound max 10 µM, 7x7, partner max 10 µM)",
    "number": 0.485
  },
  {
    "molecule": "Cc1c2c(nn1C)CSCc1cc(n(C)n1)CSc1cc(c3ccccc3c1)OCCCc1c(C(=O)O)n(C)c3c-2c(Cl)ccc13 [AZD5991] + C1CN(CCC1(C(=O)N[C@@H](CCO)C2=CC=C(C=C2)Cl)N)C3=NC=NC4=C3C=CN4 [Capivasertib] (first compound max 1 µM, 7x7, partner max 3 µM)",
    "number": 0.561
  }
]

====

Test system: COR-L279 (Small Cell Lung Carcinoma);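 further: after 72 h of two-drug dosing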
Assay: Bliss excess, mean over the matrix (fraction); higher = more synergy

[
  {
    "molecule": "NC1(C(=O)N[C@@H](CCO)c2ccc(Cl)cc2)CCN(c2ncnc3[nH]ccc23)CC1 [Capivasertib] + COc1nnc2ccc(N3CCC(c4ccc(OCCN5CCN(C)C(=O)[C@H]5C)cc4)CC3)nn12 [AZD5153] (first compound max 10 µM, 7x7, partner max 1 µM)",
    "Bliss excess": 0.0735
  },
  {
    "molecule": "C[C@@H](Oc1cc(-c2cnn(C3CCNCC3)c2)cnc1N)c1c(Cl)ccc(F)c1Cl [Crizotinib] + CC1=C(C(=CC=C1)Cl)NC(=O)C2=CN=C(S2)NC3=CC(=NC(=N3)C)N4CCN(CC4)CCO [Dasatinib] (first compound max 10 µM, 7x7, partner max 2 µM)",
    "Bliss excess": 0.0599
  },
  {
    "molecule": "C=CCn1c(=O)c2cnc(Nc3ccc(N4CCN(C)CC4)cc3)nc2n1-c1cccc(C(C)(C)O)n1 [AZD1775] + O=C(c1cc(Cc2n[nH]c(=O)c3ccccc23)ccc1F)N1CCN(C(=O)C2CC2)CC1 [Olaparib] (first compound max 1 µM, partner max 10 µM)",
    "Bliss excess": -0.0572
  },
  {
    "molecule": "CC1(C)CCC(CN2CCN(c3ccc(C(=O)NS(=O)(=O)c4ccc(NCC5CCOCC5)c([N+](=O)[O-])c4)c(Oc4cnc5[nH]ccc5c4)c3)CC2)=C(c2ccc(Cl)cc2)C1 [Venetoclax] + CCN(CCO)CCCOc1ccc2c(Nc3cc(CC(=O)Nc4cccc(F)c4)[nH]n3)ncnc2c1 [AZD2811] (first compound max 1 µM, 7x7, partner max 1 µM)",
    "Bliss excess": 0.0501
  },
  {
    "molecule": "Cc1cc2ncnn2cc1Nc1ncc2c(n1)n(C1CCOCC1)c(=O)n2C [AZD7648] + C[C@@H]1COCCN1C2=NC(=NC(=C2)C3(CC3)[S@](=N)(=O)C)C4=C5C=CNC5=NC=C4 [AZD6738] (first compound max 10 µM, 7x7, partner max 10 µM)",
    "Bliss excess": 0.0253
  }
]
